System: HT-29
Experiment: NCI tumour cell line growth inhibition, 48 h
Calls of active or inactive are those of the source. No stated cut-off is given here; in the data, active = GI50 up to about 1.1 µM and inactive = higher.
PARAMETER MEASURED: GI50

Tell me GI50 reported for `c1ccc(-c2sc(-c3ccccc3)c3c2C2CCC3C2)cc1`
18.6 µM (inactive)

Tell me GI50 reported for COC(=O)CCC1CCc2c(OC)ccc(OC)c2C1=O (stereo not given)
> 100 µM (inactive)

Tell me GI50 reported for `O=C(O)C[n+]1cn(NC(=O)Cc2ccccc2)cn1`
> 10 µM (inactive)

Tell me GI50 reported for `CC1=N/C(=C\c2c(O)ccc3ccccc23)C(=O)O1`
> 100 µM (inactive)

Tell me GI50 reported for C=C1C(=O)O[C@H]2C1C[C@H](O)/C(C)=C/CC[C@@]1(C)O[C@H]21 (stereo not given in full)
23.3 µM (inactive)

Tell me GI50 reported for `Cc1cn2c(/C=N/NC(=N)N)c(-c3cc([N+](=O)[O-])c(Cl)cc3Cl)nc2s1`
1.13 µM (inactive)

Tell me GI50 reported for CCOC(=O)C1Oc2ccc([N+](=O)[O-])cc2C1(C)O (stereo not given)
> 100 µM (inactive)

Tell me GI50 reported for CC1(C)/C(=N\NC(N)=O)C2CCC1C2 (stereo not given)
> 100 µM (inactive)

Tell me GI50 reported for `Cn1ccnc1CCc1ccc(F)cc1F`
> 100 µM (inactive)

Tell me GI50 reported for COC(=O)c1cc2cc3c(c(O)c2c(=O)o1)O[C@@]1(Oc2c(O)c4c(c(O)c2[C@H]1OC1CC(OC)C(O)C(C)O1)C(=O)C=C(OC)C4=O)[C@H](O)C3 (stereo not given in full)
1.14 µM (inactive)

Tell me GI50 reported for `c1csc(-c2ccc(-c3ccc(-c4ccc(-c5cccs5)s4)s3)s2)c1`
> 100 µM (inactive)

Tell me GI50 reported for CC(=O)c1cccc2c1CC1(C2)Cc2ccc3c(c2C1=O)CCC3 (stereo not given)
23.1 µM (inactive)

Tell me GI50 reported for `CC(C)[C@@H]1NC(=O)[C@H]2N=C(O[C@@H]2C)[C@@H]2CCCN2C(=O)[C@H](Cc2ccccc2)NC(=O)[C@@H]2CSC(=N2)[C@@H](Cc2ccccc2)NC(=O)[C@@H]2CSC1=N2`
38.8 µM (inactive)

Tell me GI50 reported for `CC(C)Cc1cnc(CC(C)C)c(=O)[nH]1`
> 100 µM (inactive)

Tell me GI50 reported for `OC(c1ccc(F)cc1)(c1ccc(F)cc1)C1CC1`
21.5 µM (inactive)

Tell me GI50 reported for COC(=O)C(=O)C(C(=O)C(=O)Nc1ccccc1C(=O)OC)c1nc2ccc(C(=O)c3ccccc3)cc2nc1O (stereo not given)
41.1 µM (inactive)

Tell me GI50 reported for COC(=O)C(C(=O)C(=O)Nc1cccc(O)c1)c1nc2ccc(Cl)cc2nc1O (stereo not given)
> 100 µM (inactive)

Tell me GI50 reported for COc1cc(C2C(Cl)C(=O)N2NC(=O)c2ccccc2O)cc(OC)c1OC (stereo not given)
2.75 µM (inactive)

Tell me GI50 reported for CC1CC=CC(O)C1 (stereo not given)
> 100 µM (inactive)

Tell me GI50 reported for CSC1CC2C(CC1(C)O)C2(C)C (stereo not given)
> 100 µM (inactive)

These data points were gathered from ChEMBL document CHEMBL1201862.
